ASSAY EXPLANATION: Solubility of compound at pH 7.4
Format: physicochemical
PARTICULARS: buffer
Give Met when the value for solubility is at least 9 µM. Give Not met when it is less.

Examples from the recorded data:
CNC(=O)c1ccc(N2CCN(Cc3ccc4nc(C)c(=O)[nH]c4c3F)CC2)c(C)n1 Met
CNC(=O)c1ccc(N2CCN(Cc3ccc4c5c(c(=O)[nH]c4c3)COCC5)CC2)cn1 Not met
CCc1nc2ccc(CN3CCN(c4ccc(C(=O)NC)nc4F)CC3)c(Cl)c2[nH]c1=O Met
CCc1nc2ccc(CN3CCN(c4ccc(C(=O)NC)nc4F)CC3)cc2[nH]c1=O Not met
CCc1cc2ccc(CN3CCN(c4cnc(C(=O)NC)cc4C)CC3)cc2[nH]c1=O Not met
CCc1nc2ccc(CN3CCN(c4ccc(C(=O)NC)nc4C)CC3)cc2[nH]c1=O Met
CNC(=O)c1ccc(N2CCN(Cc3ccc4nc(C)c(=O)[nH]c4c3)CC2)c(F)n1 Met
CCc1cc2ccc(CN3CCN(c4ccc(C(=O)NC)nc4C)CC3)cc2[nH]c1=O Not met

Has CCc1nc2ccc(CN3CCN(c4ccc(F)nc4C)CC3)cc2[nH]c1=O a recorded solubility greater than or equal to 9 µM?
Met

Has CCc1nc2ccc(CN3CCN(c4ccc(C(=O)NC)nc4F)CC3)c(C)c2[nH]c1=O a recorded solubility greater than or equal to 9 µM?
Not met

Has CNC(=O)c1ccc(N2CCN(Cc3ccc4nc(C)c(=O)[nH]c4c3F)CC2)c(F)n1 a recorded solubility greater than or equal to 9 µM?
Met

Has CCc1nc2ccc(CN3CCN(c4ccc(C(=O)NC)nc4Cl)CC3)cc2[nH]c1=O a recorded solubility greater than or equal to 9 µM?
Not met

###

ASSAY EXPLANATION: Unbound fraction in Cynomolgous monkey plasma at 1 mg/kg, po or 0.5 mg/kg, iv
Assay type: ADME, organism-based, Macaca fascicularis
PARTICULARS: cynomolgus monkey, in vivo
REPORTED ENDPOINT: Fu (%)
Quick note: give the figure in %, leave out the unit.

Which value of Fu has been reported for CNC(=O)c1ccc(N2CCN(Cc3ccc4nc(C)c(=O)[nH]c4c3F)CC2)c(F)n1 [AZD-9574] in the records?
16

###

SYSTEM UNDER TEST: Poly [ADP-ribose] polymerase 2 (Homo sapiens, UniProt Q9UGN5)
Sequence (Q9UGN5 whole entry): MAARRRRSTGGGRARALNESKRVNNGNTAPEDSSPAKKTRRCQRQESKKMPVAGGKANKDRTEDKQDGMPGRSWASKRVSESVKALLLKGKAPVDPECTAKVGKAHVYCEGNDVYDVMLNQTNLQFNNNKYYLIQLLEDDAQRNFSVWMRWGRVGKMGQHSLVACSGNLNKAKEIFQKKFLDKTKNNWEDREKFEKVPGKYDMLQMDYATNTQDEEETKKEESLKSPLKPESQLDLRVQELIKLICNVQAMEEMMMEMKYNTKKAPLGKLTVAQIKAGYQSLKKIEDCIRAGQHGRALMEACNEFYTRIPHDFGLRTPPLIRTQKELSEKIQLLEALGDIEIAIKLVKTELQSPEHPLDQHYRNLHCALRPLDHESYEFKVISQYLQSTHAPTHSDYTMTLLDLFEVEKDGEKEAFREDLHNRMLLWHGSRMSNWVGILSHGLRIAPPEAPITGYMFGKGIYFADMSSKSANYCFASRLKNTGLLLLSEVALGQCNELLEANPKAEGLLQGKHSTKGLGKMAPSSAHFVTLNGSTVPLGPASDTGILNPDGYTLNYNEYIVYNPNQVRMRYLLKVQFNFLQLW
ASSAY EXPLANATION: Inhibition of N-terminal 6His-tagged full-length recombinant human PARP2 by fluorescence anisotropy assay
REPORTED ENDPOINT: log10 IC50 (log10 of the value in µM)
Log scale reminder: IC50 in µM, then log10 taken.

Which value of log10 IC50 has been reported for CCc1nc2ccc(CN3CCN(c4ccc(F)nc4C)CC3)cc2[nH]c1=O in the records?
1.72

Which value of log10 IC50 has been reported for CNC(=O)c1ccc(N2CCN(Cc3ccc4nc(C)c(=O)[nH]c4c3)CC2)c(F)n1 in the records?
1.41

Which value of log10 IC50 has been reported for CCc1nc2ccc(CN3CCN(c4ccc(F)nc4)CC3)cc2[nH]c1=O in the records?
1.66

Which value of log10 IC50 has been reported for CNC(=O)c1ccc(N2CCN(Cc3ccc4c5c(c(=O)[nH]c4c3)COCC5)CC2)cn1 in the records?
-0.16

Which value of log10 IC50 has been reported for C[C@]12CCCN1CC1=NNC(=O)c3cc(F)cc4[nH]c2c1c34 [PAMIPARIB] in the records?
-2.22

Which value of log10 IC50 has been reported for CCc1cc2ccc(CN3CCN(c4cnc(C(=O)NC)cc4C)CC3)cc2[nH]c1=O in the records?
0.80

Which value of log10 IC50 has been reported for CCc1cc2ccc(CN3CCN(c4ccc(C(=O)NC)nc4C)CC3)cc2[nH]c1=O in the records?
0.18
